# Measured on: RET (Homo sapiens, UniProt P07949)
# Sequence (P07949 29-1114): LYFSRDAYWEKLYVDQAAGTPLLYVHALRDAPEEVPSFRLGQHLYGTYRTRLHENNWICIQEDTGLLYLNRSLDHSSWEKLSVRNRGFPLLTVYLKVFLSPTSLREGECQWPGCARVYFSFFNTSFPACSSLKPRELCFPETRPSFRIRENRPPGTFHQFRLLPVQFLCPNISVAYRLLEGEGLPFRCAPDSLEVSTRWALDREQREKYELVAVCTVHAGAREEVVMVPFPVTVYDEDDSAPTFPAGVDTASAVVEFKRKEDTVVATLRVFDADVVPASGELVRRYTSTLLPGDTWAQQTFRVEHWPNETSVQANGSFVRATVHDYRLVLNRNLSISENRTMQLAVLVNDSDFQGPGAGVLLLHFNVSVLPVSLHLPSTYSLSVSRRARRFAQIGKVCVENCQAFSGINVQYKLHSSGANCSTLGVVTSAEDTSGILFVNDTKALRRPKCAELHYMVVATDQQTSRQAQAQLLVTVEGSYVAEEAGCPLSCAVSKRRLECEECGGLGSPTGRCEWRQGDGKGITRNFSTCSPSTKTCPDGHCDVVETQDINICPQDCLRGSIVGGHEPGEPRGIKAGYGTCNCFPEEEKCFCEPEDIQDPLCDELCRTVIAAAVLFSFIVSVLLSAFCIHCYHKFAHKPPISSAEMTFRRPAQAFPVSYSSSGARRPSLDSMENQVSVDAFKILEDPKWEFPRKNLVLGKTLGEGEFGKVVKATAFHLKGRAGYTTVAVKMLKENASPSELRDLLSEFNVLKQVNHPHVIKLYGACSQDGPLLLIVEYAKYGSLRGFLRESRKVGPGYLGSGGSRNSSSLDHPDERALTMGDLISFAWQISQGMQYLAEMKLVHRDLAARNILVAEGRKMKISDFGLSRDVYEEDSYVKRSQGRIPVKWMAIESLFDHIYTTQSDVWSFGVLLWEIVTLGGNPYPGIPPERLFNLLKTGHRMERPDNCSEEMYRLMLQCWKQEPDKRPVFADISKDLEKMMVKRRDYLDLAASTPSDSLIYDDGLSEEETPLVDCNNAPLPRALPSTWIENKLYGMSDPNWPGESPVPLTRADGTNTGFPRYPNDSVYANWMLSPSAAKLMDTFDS
# Test: Inhibition of receptor tyrosine kinase activity at molecular level (ELISA, Poly(Glu,Tyr)4:1 substrate phosphorylation)
# Format: biochemical
# Run parameters: measured twice, Mean ± SD
Metric name: IC50

Q: Would you mind telling me what IC50 value was observed for CN1CCN(Cc2ccc(NC(=O)c3cccc(C#Cc4cccnc4N)c3)cc2C(F)(F)F)CC1 [Example 6] ?
A: 6 nM

Please examine the following record next.
Q: Would you mind telling me what IC50 value was observed for CN1CCN(Cc2ccc(NC(=O)c3ccc(Cl)c(C#Cc4cccnc4N)c3)cc2C(F)(F)F)CC1 [Example 1] ?
A: 1.4 nM
